- method_summary: yeast display, Sf9 membrane polyspecificity reagent, FACS + sequencing; frameworks hold sequencing errors
measured_attribute: polyreactivity (PSR sort gate)

# sequence_string, readout_value
measured = [
    ("QVHLVESGGGLVQEGGSLRLSCAASGSIFQYYAMGWYIQAPGKERELVAAISWRSGRTYYADSVKGRFTISRDNAKNTVYLQMNSLKPEDTAVYYCIRGYARDYDYWGQGTQVTVSS", "high polyreactivity"),
    ("QVQLVESGAGLLQAGGSLRLSCAASGFIFVTYAMGWYRQAPGKERELVAAITNSGGTTYYADSVKGRFTISRDNAKNTVYLQMISLKPEDTAVYYCNKAYGAETAHREFVYWGQGTQVTVSS", "low polyreactivity"),
    ("QVQLVESGGGLVQAGGSLRLSCAASGLIFTTNAMGWYRQAPGKEREFVAAISPSGGSTYYADSVKGRFTISRDNAKNTVYLQMNSLKPEDTAVYYCAAAGWSARGYNYWGQGTQVTVSS", "high polyreactivity"),
    ("QVHLVESGGGLVQAGGSLGISCAASGRILYGYAMGWNRQAPGKERELVAAITATYYADSVKGRFTISRDNAKNSVYLQMNSLNPEDTGVFYCNAYLCPIQPLSPPDPTFEGGYWGQGTQVTVSS", "low polyreactivity"),
    ("QVQLVESGGGLVQAGGSLRLSCAASGFTFPLNAMGWYRQAPGKEREFVAAITYSGGGTYYADSVKGRFTISRDNAKNTVYLQMNSLKPEDTAVYYCAAERGYQAHPGQGDYWGQGTQVTVSS", "high polyreactivity"),
]
